Entry source: the supplement of paper PMC3545927

Measured furin cleavage Z-score values are reported for all entries that follow.
Test System: furin, P09958;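 also: purified furin at 1:10 enzyme:substrate in 50 mM HEPES pH 7.5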
Sequence (P09958 whole entry): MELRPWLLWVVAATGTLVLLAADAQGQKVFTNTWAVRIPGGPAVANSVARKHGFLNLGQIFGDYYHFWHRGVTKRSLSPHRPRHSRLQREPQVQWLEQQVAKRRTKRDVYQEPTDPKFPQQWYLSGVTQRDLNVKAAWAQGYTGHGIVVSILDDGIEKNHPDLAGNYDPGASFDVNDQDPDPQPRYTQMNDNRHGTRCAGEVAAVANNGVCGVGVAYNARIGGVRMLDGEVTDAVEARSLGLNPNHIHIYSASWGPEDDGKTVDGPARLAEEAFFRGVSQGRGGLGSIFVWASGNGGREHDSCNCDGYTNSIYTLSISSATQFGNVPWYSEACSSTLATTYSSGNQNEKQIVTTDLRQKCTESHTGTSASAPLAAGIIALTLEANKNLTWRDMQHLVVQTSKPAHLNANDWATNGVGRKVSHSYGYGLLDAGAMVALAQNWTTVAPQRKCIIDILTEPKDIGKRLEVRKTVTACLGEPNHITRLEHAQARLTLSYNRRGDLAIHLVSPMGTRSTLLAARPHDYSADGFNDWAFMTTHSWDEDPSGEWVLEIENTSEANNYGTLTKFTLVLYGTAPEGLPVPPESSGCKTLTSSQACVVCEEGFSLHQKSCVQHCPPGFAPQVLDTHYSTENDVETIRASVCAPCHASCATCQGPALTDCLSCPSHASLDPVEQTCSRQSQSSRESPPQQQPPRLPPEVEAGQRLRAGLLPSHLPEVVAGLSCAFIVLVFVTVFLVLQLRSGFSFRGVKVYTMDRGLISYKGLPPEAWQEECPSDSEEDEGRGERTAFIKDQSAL
Procedure Text: furin cleavage Z-score vs untreated control; higher = more cleavage, active = 3.5 or more, inactive = 1 or less, 8 variable residues between constant flanks
Condition Info: 30 min
The list shows a part of the results. No count for the full screen is at hand.
Measurement Type: furin cleavage Z-score

{"Biosequence": "CARRRRSVQLAGNASASA [FS-1789]", "Measurement Type": "furin cleavage Z-score", "Numeric Readout": 2.7}
{"Biosequence": "CARRRRDVVTAGNASASA [FS-2232]", "Measurement Type": "furin cleavage Z-score", "Numeric Readout": 8.98}
{"Biosequence": "CARNARNVSQAGNASASA [FS-3003]", "Measurement Type": "furin cleavage Z-score", "Numeric Readout": 5.98}
{"Biosequence": "CAIPLVGAPLAGNASASA [HC229]", "Measurement Type": "furin cleavage Z-score", "Numeric Readout": -0.498}
{"Biosequence": "CARRRRCVGLAGNASASA [FS-2403]", "Measurement Type": "furin cleavage Z-score", "Numeric Readout": 5.18}
{"Biosequence": "CAAAIGSVGLAGNASASA [HC1079]", "Measurement Type": "furin cleavage Z-score", "Numeric Readout": -0.452}
{"Biosequence": "CASLLAPGAKAGNASASA [HC361]", "Measurement Type": "furin cleavage Z-score", "Numeric Readout": -0.788}
